From: PubChem BioAssay (NCI)

System: SNB-75 CNS
Method summary: NCI-60 one-dose screen, 48 h
Experimental setup: 10 µM unless noted
This is part of a sample that, as a whole, favours compounds with a hit. Of some 83,000 tested, about 20% had one in any assay. The source made the active and inactive calls. How the source made its calls: active means growth percent below 10; inactive means the rest.
Could you please pick one outcome from this set? t = active, f = inactive

// below: answered molecules
[
  {
    "Molecule": "O=C(CCCCCCSc1nc(-c2ccccc2)cc(-c2ccc(Cl)cc2)n1)NO",
    "Assigned category": "f"
  },
  {
    "Molecule": "OC(c1cccc(-n2ccc(C(F)(F)F)n2)c1)c1cnccc1NC1CCCCCC1 (stereo not given)",
    "Assigned category": "f"
  },
  {
    "Molecule": "COc1ccc(C2C(c3nn[nH]n3)=C(N)Oc3c2ccc2ccccc32)cc1 (stereo not given)",
    "Assigned category": "f"
  }
]

Task item: For Cc1ccc2nc(NC(=O)CSc3nc(Nc4ccc([N+](=O)[O-])cc4)c(C#N)c(-c4ccccc4)n3)sc2c1 , which call appears in the assay record?
Reply: f

Task item: For O=C(CC(SCc1ccccc1)c1ccccc1)c1ccccc1 (stereo not given) , which call appears in the assay record?
Reply: f

Task item: For N#C/C(=C\c1ccc(-c2ccccc2F)o1)c1nc(-c2ccco2)cs1 , which call appears in the assay record?
Reply: f

Task item: For Cc1c(Cl)cc(-n2c(=O)c3ccccc3c3ccccc3c2=O)cc1Cl , which call appears in the assay record?
Reply: f

Task item: For Cc1ccccc1NC(=O)N/C(N)=N/c1nc(-c2cccc([N+](=O)[O-])c2)cs1 , which call appears in the assay record?
Reply: t

Task item: For c1ccc2cc3nc4cc5ccccc5cc4nc3cc2c1 , which call appears in the assay record?
Reply: f

Task item: For Cc1cc(C)c(-c2c(C)cc(C)cc2CBr)c(CBr)c1 , which call appears in the assay record?
Reply: f

====

Tested on: OVCAR-3 ovarian
Method summary: NCI-60 one-dose screen, 48 h (100 = growth as untreated, 0 = no growth, -100 = all killed)
Experimental setup: 10 µM unless noted
The panel holds about 83,000 compounds, 20% with a hit somewhere; the sample as a whole holds those more often.
Catalogue of growth values
// units = %; emit number, no label

[
  {
    "Cpd smiles": "O=C1CCc2c(sc3[nH]c(=S)n(-c4ccc(OC(F)(F)F)cc4)c(=O)c23)C1",
    "Units label": "%",
    "growth": 13.2
  },
  {
    "Cpd smiles": "COc1cc(/C=N/n2c(CN3CCOCC3)nc3ccccc3c2=O)cc(OC)c1OC",
    "Units label": "%",
    "growth": 106
  },
  {
    "Cpd smiles": "O=C1/C(=C2/C=Nc3ccccc32)N(O)c2ccccc21",
    "Units label": "%",
    "growth": 34.8
  },
  {
    "Cpd smiles": "COCCN(C(=O)c1ccc(F)cc1F)c1c(N)n(Cc2ccccc2)c(=O)[nH]c1=O",
    "Units label": "%",
    "growth": 115
  }
]

Task item: May I ask what growth has been recorded for CC(C)(C)CC(C)(C)Nc1c(-c2ccncc2)nc2cnccn12 ?
Reply: 102

Task item: May I ask what growth has been recorded for N/C(=N/N=C/c1ccccc1)N/N=C\c1ccccc1 ?
Reply: 12.6

Task item: May I ask what growth has been recorded for O=C1/C(=C\c2c[nH]c3ccccc23)c2ccccc2N1c1c(Cl)cccc1Cl ?
Reply: -27.8

Task item: May I ask what growth has been recorded for C[n+]1cc2c3c(ccc2c2ccc4cc5c(cc4c21)OCO5)OCO3 ?
Reply: -93.5

Task item: May I ask what growth has been recorded for CCCCCCCC/C=C\CCCCCCCCOc1ccccc1CC(=O)NCC[N+](C)(C)C ?
Reply: 83.2

Task item: May I ask what growth has been recorded for N=C(N)c1ccc(-c2ccc(-c3cncc4ccccc34)s2)s1 ?
Reply: -85.5

====

System: SK-MEL-28 melanoma
Method summary: NCI-60 one-dose screen, 48 h (100 = growth as untreated, 0 = no growth, -100 = all killed)
Experimental setup: 10 µM unless noted
This is part of a sample that, as a whole, favours compounds with a hit. Of some 83,000 tested, about 20% had one in any assay.
Catalogue of growth values
// units = %; emit number, no label

Worked examples, 3 compounds total:
[
  {
    "Compound": "CCN(CC)c1ccc(C(=O)c2ccc(N(CC)CC)cc2)cc1",
    "Units label": "%",
    "growth": 51.3
  },
  {
    "Compound": "COc1ccc(OC)c2c1[nH]c(=O)c1c3ncccc3cn21",
    "Units label": "%",
    "growth": 64.3
  },
  {
    "Compound": "CC(=O)c1ccc(NCC(=O)Nc2ccccn2)cc1",
    "Units label": "%",
    "growth": 115
  }
]

Task item: May I ask what growth has been recorded for Cn1c2c(c3ccc(Cl)c(Cl)c31)C(C#N)C1(CCNCC1)NC2=O (stereo unspecified) ?
Reply: -81.4

Task item: May I ask what growth has been recorded for CCCCCCCCCCN(CCCCCCCCCC)CC(=O)c1ccc2cc(Br)c3ccccc3c2c1 ?
Reply: 113

Task item: May I ask what growth has been recorded for Clc1cccc(Cl)c1C(Nc1nc2ccccc2s1)Nc1nc2ccccc2s1 ?
Reply: 109

Task item: May I ask what growth has been recorded for COc1ccc(NC(=O)CSc2nc(C)c(C(C)=O)n2-c2ccc(Cl)cc2)cc1 ?
Reply: 91.7

Task item: May I ask what growth has been recorded for COc1ccc2nc(NNC(=O)c3cnccn3)c3cccn3c2c1 ?
Reply: 11.7

Task item: May I ask what growth has been recorded for COc1cc(/C=C/C(=O)N2CCN(C(=O)c3cc(OC)c(OC)c(OC)c3)CC2)ccc1OCCCN1C(=O)c2cccc3cccc(c23)C1=O ?
Reply: 81.9

Task item: May I ask what growth has been recorded for O=c1cc(-c2ccc(Cl)cc2)[nH]c2ccccc12 ?
Reply: 78.1

Task item: May I ask what growth has been recorded for COc1cccc(C(=O)NCCNc2cc(-c3cn(-c4ccccc4)nc3-c3cccc(OC)c3)ccn2)c1 ?
Reply: 80.2

Task item: May I ask what growth has been recorded for N#CC1=C(/N=C/c2ccccc2)Oc2c(ccc3ccccc23)C1c1ccccc1 (stereo unspecified) ?
Reply: 41.5

Task item: May I ask what growth has been recorded for Cc1ccc(-c2c(-c3ccccc3)c(=O)oc3ccc(C)cc23)cc1 ?
Reply: 110

Task item: May I ask what growth has been recorded for CC1CC(C(C)(C)C)C(=O)C(C(C)(C)C)C1 (stereo unspecified) ?
Reply: 116

Task item: May I ask what growth has been recorded for COC(=O)[C@H](CSC)N(C)C(=O)[C@@H]1CSSC[C@@H](NC(=O)c2nc3ccccc3cc2O)C(=O)NCC(=O)N1C ?
Reply: 83.4

Task item: May I ask what growth has been recorded for C=C1C(=O)O[C@H]2[C@H]1CC/C(COC(=O)C(=O)c1cn(C)c3ccc(OC)cc13)=C\CC[C@@]1(C)O[C@@H]21 ?
Reply: -65.3

Task item: May I ask what growth has been recorded for COC1=C(OC)C(=O)C(OC)=C(OC)C1=O ?
Reply: 105

Task item: May I ask what growth has been recorded for C=CCn1c(C)nc2cc(Nc3nc(Cl)nc4ccccc34)ccc21 ?
Reply: 107

Task item: May I ask what growth has been recorded for COc1ccc(C(=O)COc2ccc(/C=C3\Oc4ccccc4C3=O)cc2)cc1 ?
Reply: 123

Task item: May I ask what growth has been recorded for COc1cccc(-c2nn(-c3ccccc3)cc2-c2ccnc(NCCCNC(=O)c3ccccc3)c2)c1 ?
Reply: 67.8

Task item: May I ask what growth has been recorded for O=C(/C=C/c1cccc(O)c1)c1cccc(-n2cc(-c3ccc4ccccc4c3)[nH]c2=O)c1 ?
Reply: 42.9

====

Test system: A549/ATCC NSCLC
Method summary: NCI-60 one-dose screen, 48 h
Experimental setup: 10 µM unless noted
About 83,000 compounds went through this panel and 20% of them were active in at least one assay; those are over-represented in the sample as a whole. Activity calls are given as the source filed them. Rule for the calls: active = growth percent below 10; inactive = the rest.
Could you please pick one outcome from this set? true (1) for active, false (0) for inactive

// below: answered compounds
[
  {
    "Compound": "Cc1ccc(S(=O)(=O)Oc2cc(OS(=O)(=O)c3ccc(C)cc3)cc(OS(=O)(=O)c3ccc(C)cc3)c2)cc1",
    "System tested": "A549/ATCC NSCLC",
    "Assigned category": "false (0)"
  },
  {
    "Compound": "CN(Cc1cnc2nc(N)nc(N)c2n1)c1ccc(C(=O)N[C@@H](CCc2nn[nH]n2)c2nn[nH]n2)cc1",
    "System tested": "A549/ATCC NSCLC",
    "Assigned category": "false (0)"
  },
  {
    "Compound": "CNC(=O)c1cc(Oc2ccc3nc(Nc4ccc(Cl)c(C(F)(F)F)c4)ccc3c2)ccn1",
    "System tested": "A549/ATCC NSCLC",
    "Assigned category": "false (0)"
  }
]

Task item: For COc1cccc(-c2nc3sccn3c2-c2ccnc(NCCNS(=O)(=O)c3cccc(F)c3)c2)c1 , which call appears in the assay record?
Reply: false (0)

Task item: For O=C(NCCCNc1cc(-c2cn(-c3ccccc3)nc2-c2cccc(O)c2)ccn1)c1ccc(F)cc1 , which call appears in the assay record?
Reply: false (0)

Task item: For O=[N+]([O-])c1ccc(N2c3ccncc3Sc3ccncc32)cc1 , which call appears in the assay record?
Reply: false (0)

Task item: For O=c1c2c3c(sc2n2c(-c4cn(-c5ccccc5)nc4-c4ccc(Cl)cc4)nnc2n1Cc1ccccc1)CCCC3 , which call appears in the assay record?
Reply: false (0)

Task item: For COC1=C(OC)C(=O)C(OC)=C(OC)C1=O , which call appears in the assay record?
Reply: false (0)

Task item: For CCC1(C2CCCC2)NC(=O)NC1=O (centres undefined) , which call appears in the assay record?
Reply: false (0)

Task item: For COC(=O)c1ccc(C2Nc3ccc(S(=O)(=O)Nc4ccc(C)c(C)c4)cc3C3OCCC23)cc1 (centres undefined) , which call appears in the assay record?
Reply: false (0)

Task item: For CC(C)(C)n1cc(-c2ccnc(NCCCNS(=O)(=O)c3ccccc3)c2)c(-c2ccccc2)n1 , which call appears in the assay record?
Reply: false (0)
